# assay_procedure: Cytotoxicity against human Bel7402 cells
# Type: cell-based
# protocol_conditions: Bel-7402
readout_name: IC50

INSERT INTO results (record_smiles, observed_measurement) VALUES
  ('O=c1oc(/C=C/c2ccc(O)c(O)c2)cc(O)c1-c1cc(O)c(O)cc1/C=C/c1cc2oc(=O)c3cc(O)c(O)cc3c2c(=O)o1', '> 10 µg/mL'),
  ('CC[C@@]1(O)C(=O)OCc2c1cc1n(c2=O)Cc2cc3c(CN(C)C)c(O)ccc3nc2-1', '1.4 µM'),
  ('O=c1oc2cc(-c3c(-c4ccc(O)c(O)c4)oc4cc(/C=C/c5ccc(O)c(O)c5)oc(=O)c34)oc(=O)c2c2cc(O)c(O)cc12', '> 10 µg/mL'),
  ('O=C(O)c1cc2oc(=O)c3cc(O)c(O)cc3c2c(=O)o1', '9.2 µM');

# input for lookup
# input Field request: IC50 | item: "CC1=CC(=O)[C@H](c2c(O)cc(/C=C/c3ccc(O)c(O)c3)oc2=O)[C@@H](c2ccc(O)c(O)c2)O1"
# output > 10 µg/mL

----------
# system_under_test: UniProt:P18031
# Sequence (P18031 whole entry): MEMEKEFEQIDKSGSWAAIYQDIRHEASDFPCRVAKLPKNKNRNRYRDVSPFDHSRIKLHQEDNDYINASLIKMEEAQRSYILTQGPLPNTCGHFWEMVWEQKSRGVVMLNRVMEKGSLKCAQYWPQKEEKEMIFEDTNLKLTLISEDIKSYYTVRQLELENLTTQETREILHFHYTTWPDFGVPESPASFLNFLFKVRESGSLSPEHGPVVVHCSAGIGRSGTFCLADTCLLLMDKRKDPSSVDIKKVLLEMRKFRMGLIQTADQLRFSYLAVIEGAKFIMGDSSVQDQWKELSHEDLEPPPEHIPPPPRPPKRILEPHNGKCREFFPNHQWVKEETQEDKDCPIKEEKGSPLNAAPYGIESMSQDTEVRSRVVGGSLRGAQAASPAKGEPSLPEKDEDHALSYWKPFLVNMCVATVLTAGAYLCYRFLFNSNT
pIC50: −log10 of the molar value.
readout_name: pIC50

# input Look up pIC50 with UniProt:P18031 for this molecule: O=C(O)c1cc2oc(=O)c3cc(O)c(O)cc3c2c(=O)o1 [PHELLIGRIDIN J]
# output < 5.00

----------
# Tested on: A549
# assay_procedure: Cytotoxicity against human A549 cells
# Type: cell-based
Consider the following molecules and their measured IC50 readings.

INSERT INTO results (record_smiles, observed_measurement) VALUES
  ('CC1=CC(=O)[C@H](c2c(O)cc(/C=C/c3ccc(O)c(O)c3)oc2=O)[C@@H](c2ccc(O)c(O)c2)O1', '> 10 µg/mL');

Next:
# input May I ask what IC50 has been recorded for "O=C(O)c1cc2oc(=O)c3cc(O)c(O)cc3c2c(=O)o1" ?
# output 4.2 µM

----------
# Test system: A549
# assay_procedure: Cytotoxicity against human A549 cells
# Format: cell-based
readout_name: IC50

Solved cases (2 shown):
INSERT INTO results (compound, readout_name, observed_measurement) VALUES
  ('O=c1oc(/C=C/c2ccc(O)c(O)c2)cc(O)c1-c1cc(O)c(O)cc1/C=C/c1cc2oc(=O)c3cc(O)c(O)cc3c2c(=O)o1 [PHELLIGRIDIN I]', 'IC50', '> 10 µg/mL'),
  ('O=c1oc2cc(-c3c(-c4ccc(O)c(O)c4)oc4cc(/C=C/c5ccc(O)c(O)c5)oc(=O)c34)oc(=O)c2c2cc(O)c(O)cc12 [PHELLIGRIDIN H]', 'IC50', '> 10 µg/mL');

Attention now turns to another entry.
# input Bench note: what IC50 did CC[C@@]1(O)C(=O)OCc2c1cc1n(c2=O)Cc2cc3c(CN(C)C)c(O)ccc3nc2-1 [TOPOTECAN] show?
# output 3.1 µM
